- tgt: GST-Hu-p50 (Homo sapiens, UniProt P19838 7-356)
- Sequence (P19838 7-356): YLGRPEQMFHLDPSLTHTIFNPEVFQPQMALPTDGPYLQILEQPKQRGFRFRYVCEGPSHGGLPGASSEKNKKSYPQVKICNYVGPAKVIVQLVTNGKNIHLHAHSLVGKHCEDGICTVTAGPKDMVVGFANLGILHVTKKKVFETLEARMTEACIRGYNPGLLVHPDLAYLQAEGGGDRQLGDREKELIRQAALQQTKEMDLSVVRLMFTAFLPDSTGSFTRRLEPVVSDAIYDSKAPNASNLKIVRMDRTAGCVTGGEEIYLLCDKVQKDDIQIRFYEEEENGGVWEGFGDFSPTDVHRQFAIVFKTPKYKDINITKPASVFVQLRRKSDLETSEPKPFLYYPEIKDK
- protocol_details: protein-binding microarray (PBM); PBM: ~300 nM protein, 6 mM HEPES pH 7.8, 80 mM KCl, 0.5 mM EDTA, 0.5 mM EGTA, 6% glycerol, 35 ng/ul poly-dIdC, 1% milk, 1 h, room temperature; Ap Aiptasia and Nv Nematostella (sea anemones) / Co Capsaspora / Aq Amphimedon (sponge) / Dm Drosophila / Hu human; RHD is the Rel homology domain; high values mean tight binding
- protocol_conditions: dsDNA, one strand shown
I'd appreciate it if you marked entries True when binding signal is lower than 5 z-score and False when it is not.

>  <record_sequence>
CCGATTAACATCAGGGGAATACATGATGTTAATCGGGTCTTGATTCGCTTGACGCTGCTG

>  <group>
False

$$$$
>  <record_sequence>
CCGATTAACATCAAGGGGGGATGTGATGTTAATCGGGTCTTGATTCGCTTGACGCTGCTG

>  <group>
True

$$$$
>  <record_sequence>
CCGATTAACATCATCCTGGGAAATGATGTTAATCGGGTCTTGATTCGCTTGACGCTGCTG

>  <group>
True

$$$$

Incoming: Consider `CCGATTAACATCACACATCCCCCTGATGTTAATCGGGTCTTGATTCGCTTGACGCTGCTG` . Does its binding signal lie strictly below 5 z-score?
Outgoing: True

Incoming: And the next one, `CCGATTAACATCAGGGGGAATGATGATGTTAATCGGGTCTTGATTCGCTTGACGCTGCTG` ?
Outgoing: False

Incoming: And the next one, `CCGATTAACATCAGTTTGGGAAATGATGTTAATCGGGTCTTGATTCGCTTGACGCTGCTG` ?
Outgoing: True

Incoming: And the next one, `CCGATTAACATCAGGCAGTCCCCTGATGTTAATCGGGTCTTGATTCGCTTGACGCTGCTG` ?
Outgoing: True

Incoming: And the next one, `CCGATTAACATCACGGGAAGTACTGATGTTAATCGGGTCTTGATTCGCTTGACGCTGCTG` ?
Outgoing: True

Incoming: And the next one, `CCGATTAACATCAGGGGGAAGTATGATGTTAATCGGGTCTTGATTCGCTTGACGCTGCTG` ?
Outgoing: False

Incoming: And the next one, `CCGATTAACATCAGGGCTCCCCATGATGTTAATCGGGTCTTGATTCGCTTGACGCTGCTG` ?
Outgoing: True

Incoming: And the next one, `CCGATTAACATCATGGGGGAAAATGATGTTAATCGGGTCTTGATTCGCTTGACGCTGCTG` ?
Outgoing: False

Incoming: And the next one, `CCGATTAACATCAGGGGGTTACCTGATGTTAATCGGGTCTTGATTCGCTTGACGCTGCTG` ?
Outgoing: False

Incoming: And the next one, `CCGATTAACATCAACACCCCCCTTGATGTTAATCGGGTCTTGATTCGCTTGACGCTGCTG` ?
Outgoing: True

Incoming: And the next one, `CCGATTAACATCAACAAAATCCCTGATGTTAATCGGGTCTTGATTCGCTTGACGCTGCTG` ?
Outgoing: True

Incoming: And the next one, `CCGATTAACATCAGGGGATCTTATGATGTTAATCGGGTCTTGATTCGCTTGACGCTGCTG` ?
Outgoing: False

Incoming: And the next one, `CCGATTAACATCAAGAAGTCCCCTGATGTTAATCGGGTCTTGATTCGCTTGACGCTGCTG` ?
Outgoing: False

Incoming: And the next one, `CCGATTAACATCACCTTTTTCCCTGATGTTAATCGGGTCTTGATTCGCTTGACGCTGCTG` ?
Outgoing: True
